target: Muscle, skeletal receptor tyrosine-protein kinase (Homo sapiens) (UniProt O15146); settings: at 0.1 µM;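 also: values are mean inhibition of MuSK from the GSK PKIS kinase screening panel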
Sequence (O15146 whole entry): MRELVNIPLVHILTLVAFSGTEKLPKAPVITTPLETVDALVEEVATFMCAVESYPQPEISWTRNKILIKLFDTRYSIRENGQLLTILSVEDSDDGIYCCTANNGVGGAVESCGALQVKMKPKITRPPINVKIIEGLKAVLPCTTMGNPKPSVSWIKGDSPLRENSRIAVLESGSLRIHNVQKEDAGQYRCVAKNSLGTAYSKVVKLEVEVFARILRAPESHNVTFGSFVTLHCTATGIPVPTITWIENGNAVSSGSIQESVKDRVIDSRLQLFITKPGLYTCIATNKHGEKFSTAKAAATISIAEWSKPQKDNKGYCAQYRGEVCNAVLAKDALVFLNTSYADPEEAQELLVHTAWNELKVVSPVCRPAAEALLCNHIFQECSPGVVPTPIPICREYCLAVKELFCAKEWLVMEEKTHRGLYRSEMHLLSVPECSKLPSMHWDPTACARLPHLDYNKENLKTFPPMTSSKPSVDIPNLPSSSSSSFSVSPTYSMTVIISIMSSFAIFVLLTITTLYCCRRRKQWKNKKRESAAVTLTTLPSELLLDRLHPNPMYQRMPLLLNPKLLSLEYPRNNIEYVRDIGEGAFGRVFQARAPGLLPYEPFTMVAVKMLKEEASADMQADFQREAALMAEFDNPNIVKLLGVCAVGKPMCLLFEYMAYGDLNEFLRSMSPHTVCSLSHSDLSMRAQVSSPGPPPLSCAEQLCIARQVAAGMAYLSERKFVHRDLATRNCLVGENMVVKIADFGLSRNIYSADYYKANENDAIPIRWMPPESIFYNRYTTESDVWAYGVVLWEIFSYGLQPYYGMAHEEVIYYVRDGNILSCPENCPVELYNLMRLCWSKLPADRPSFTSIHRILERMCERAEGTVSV
Property label: inhibition (%)
Answers are plain numbers, in %.

Reference set, count: 5
1) Cc1ccc2c(-c3ccnc(Nc4ccccc4)n3)c(-c3ccc(F)cc3)nn2n1 | 3.5
2) CC1=C(C(=O)Nc2cc(Cl)c3[nH]ncc3c2)C(c2ccc(C(F)(F)F)cc2)CC(=O)N1 (stereo not given) | 50.2
3) COc1ccc(-c2oc3ncnc(N)c3c2-c2ccc(NC(=O)Nc3cc(C(F)(F)F)ccc3F)cc2)cc1 | 96.6
4) [O-][S+]1CCN(Cc2ccc(-c3ccc4ncnc(Nc5ccc(OCc6cccc(F)c6)c(Cl)c5)c4c3)o2)CC1 | 3.52
5) CCOc1ccc2c(-c3ccnc(Nc4cccc(C(F)(F)F)c4)n3)cnn2n1 | 2.25

Hi team, please reply with inhibition for each item in this list.
1. Fc1ccc(-c2nn3ccccc3c2-c2ccncc2)cc1
2. CCn1cc(-c2ccnc3[nH]ccc23)c(-c2cccc(NC(=O)Nc3ccc(OCc4ccccc4)cc3)c2)n1
3. COc1ccc(-c2nn3ncccc3c2-c2ccnc(Nc3ccc4c(c3)OCCO4)n2)cc1
4. COc1ccc2[nH]c3c4[nH]c5ccc(OC)cc5c4c4c(c3c2c1)C(=O)NC4=O
5. COc1ccc2c(-c3ccnc(Nc4cccc(OC(F)(F)F)c4)n3)cnn2n1

[reply]
1. 3.06
2. -1.52
3. -0.81
4. 4.97
5. 5.85

State the recorded inhibition for every item in the following list.
1. COc1ccc(-c2cc(-c3c[nH]nc3-c3ccccn3)ccn2)cc1
2. CCc1nn2ncccc2c1-c1ccnc(NC2CC2)n1
3. CCn1c(-c2nonc2N)nc2ccccc21
4. CN(C)CCOc1ccc(-c2nc(-c3ccncc3)c(-c3ccc4c(c3)CC/C4=N\O)[nH]2)cc1
5. CNC(=O)c1cccc(C#Cc2cncnc2Nc2ccc(OCc3cccc(F)c3)c(Cl)c2)c1
6. NS(=O)(=O)c1ccc(N/N=C2\C(=O)Nc3ccc4ncccc4c32)cc1
7. Fc1ccc(-c2nn3ncccc3c2-c2ccnc(Nc3ccc4c(c3)OCCO4)n2)cc1

[reply]
[3.4, 1.52, 3.36, 2.95, -0.28, 11.3, 3.02]

For each listed entry, give its inhibition.
1. CNC(=O)c1cncc(/C=C/c2ccccc2Cl)c1
2. COc1cccc(-n2ncc3c(N/N=C/c4ccc(F)cc4)ncnc32)c1
3. c1ccc(COc2ccc(Nc3ncnc4ccc(-c5ccco5)cc34)cc2)cc1

[reply]
0.71
3.89
0.09

====

target: Testis-specific serine/threonine-protein kinase 1 (Homo sapiens) (UniProt Q9BXA7); conditions: at 0.1 µM;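 also: mean percent inhibition of TSSK1, from the GSK PKIS screening dataset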
Sequence (Q9BXA7 whole entry): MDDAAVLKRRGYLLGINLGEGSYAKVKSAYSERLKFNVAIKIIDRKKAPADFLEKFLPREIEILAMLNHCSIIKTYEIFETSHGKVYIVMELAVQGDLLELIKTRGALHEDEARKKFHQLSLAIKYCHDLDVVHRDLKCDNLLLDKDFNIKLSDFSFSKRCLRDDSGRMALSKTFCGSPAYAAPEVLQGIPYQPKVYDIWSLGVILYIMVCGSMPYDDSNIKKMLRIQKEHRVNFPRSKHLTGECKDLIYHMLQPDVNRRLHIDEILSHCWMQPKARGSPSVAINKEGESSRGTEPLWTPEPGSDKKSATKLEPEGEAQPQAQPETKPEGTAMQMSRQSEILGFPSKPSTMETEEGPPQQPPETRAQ
Would you mind telling me the reported inhibition of each entry?
One number for each entry, in %.

Worked cases, inhibition given:
1) CN(C)CCOc1ccc(-c2nc(-c3ccncc3)c(-c3ccc4c(c3)CC/C4=N\O)[nH]2)cc1 | 1.85
2) Fc1ccc(-c2cc(-c3c[nH]nc3-c3ccccn3)ccn2)cc1 | 6.33

Turning to the following molecule.
[ask] Please give the documented inhibition of COc1cc(/C=N/Nc2ncnc3[nH]ncc23)ccc1O
[reply] 4.57

====

target: Serine/threonine-protein kinase Nek1 (Homo sapiens); conditions: at 1 µM
Description: GSK_PKIS: NEK1 mean inhibition at 1 uM [Nanosyn]
Property label: inhibition (%)
Answers are plain numbers, in %.

Sample answers from the record:
1) CS(=O)(=O)CCNCc1coc(-c2ccc3ncnc(Nc4ccc(OCc5ccccc5)cc4)c3c2)c1 | 3.07
2) CC(=O)NCc1cccc(C#Cc2cncnc2Nc2ccc(OCc3cccc(F)c3)c(Cl)c2)c1 | 1.25
3) Nc1nc(-c2cccc(Cl)c2)c(-c2ccc3ncccc3n2)s1 | 6.68
4) Nc1ncc(-c2cccc(S(N)(=O)=O)c2)c2scc(-c3ccc(F)c(Cl)c3)c12 | 3.98
5) COc1cc(/C=N/Nc2ncnc3[nH]ncc23)ccc1O | 12
6) CC(=O)Nc1cccc(C#Cc2cncnc2Nc2ccc(OCc3cccc(F)c3)c(Cl)c2)c1 | 1.3
7) CCNC(=O)O[C@H]1CN[C@H](C#Cc2cc3ncnc(Nc4ccc(OCc5cccc(F)c5)c(Cl)c4)c3s2)C1 | 2.36
8) CCN(CC)S(=O)(=O)c1ccc(OC)c(Nc2ncc(-c3ccccc3)o2)c1 | 1.95

Give measured inhibition for every item shown.
1. COc1ccc2c(-c3ccnc(Nc4cccc(OC(F)(F)F)c4)n3)cnn2n1
2. CCCN1CCC(c2ccc(Nc3nc(Nc4cc(F)ccc4C(N)=O)c4cc[nH]c4n3)c(OC)c2)CC1
3. COc1ccc(CNC(=O)c2ccc(-c3cc(-c4nnc(C)o4)ccc3C)cc2)cc1
4. CNC(=O)c1cc(-c2ccc(F)cc2)cc(-c2ccc(S(=O)(=O)N3CCCC3)cc2)c1N
5. CN1CCC(n2cnc(-c3ccc(F)cc3)c2-c2ccnc(N)n2)CC1
6. O=S(=O)(CCNCc1ccc(-c2ccc3ncnc(Nc4ccc(OCc5cccc(F)c5)c(Cl)c4)c3c2)o1)c1ccccc1
7. [O-][S+]1CCN(Cc2ccc(-c3ccc4ncnc(Nc5ccc(OCc6cccc(F)c6)c(Cl)c5)c4c3)o2)CC1

[reply]
1. 6.35
2. 21.6
3. 1.51
4. 2.25
5. 0.96
6. 5.88
7. 3.84

// each compound listed below needs its inhibition
1. COC(=O)c1sc(-n2cnc3cc(OC)c(OC)cc32)cc1OCc1ccccc1C(F)(F)F
2. COc1cc(Nc2nccc(Nc3ccc4c(C)n[nH]c4c3)n2)cc(OC)c1OC
3. COc1ccc(-c2nn3ncccc3c2-c2ccnc(Nc3ccc4c(c3)OCCO4)n2)cc1
4. CCn1c(-c2nonc2N)nc2c(C#CC(C)(C)O)ncc(OC3CCNCC3)c21

[reply]
0.28
7.77
2.9
2.37
